Hey, just so you know, these numbers are from patent US12291522B2.

Target: hCRBN (NanoLuc-CRBN fusion construct in HEK-293 cells) (Homo sapiens, UniProt Q96SW2)
Sequence (Q96SW2 whole entry, the tested form may be a part): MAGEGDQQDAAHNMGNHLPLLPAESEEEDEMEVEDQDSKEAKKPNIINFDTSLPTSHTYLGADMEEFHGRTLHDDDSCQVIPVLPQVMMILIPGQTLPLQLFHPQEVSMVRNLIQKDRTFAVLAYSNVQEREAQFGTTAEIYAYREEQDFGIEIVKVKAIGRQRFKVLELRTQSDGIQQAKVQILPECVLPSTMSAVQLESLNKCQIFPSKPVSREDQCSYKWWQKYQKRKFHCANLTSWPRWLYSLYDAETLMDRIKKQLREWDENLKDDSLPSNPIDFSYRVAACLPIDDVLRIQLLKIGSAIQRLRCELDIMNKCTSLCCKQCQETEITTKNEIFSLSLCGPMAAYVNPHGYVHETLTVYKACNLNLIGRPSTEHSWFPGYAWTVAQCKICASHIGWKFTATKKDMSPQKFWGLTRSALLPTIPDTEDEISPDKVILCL
Assay: CRBN BRET Target Engagement
Settings: NanoLuc-CRBN transfected HEK-293 cells, BRET with CRBN Probe
pIC50: −log10 of the molar value.
Reported pIC50 by item:
Reported endpoint: pIC50

- Compound: "Cc1nc([C@@H]2O[C@H](CO)[C@H](O)[C@H](n3cc(-c4cc(F)c(Cl)c(F)c4)nn3)[C@H]2OCC(=O)N2CC(COc3ccc(C(=O)Nc4ccc5c(c4)C(=O)N(C4CCC(=O)NC4=O)C5)cc3)C2)n(-c2cc(Cl)ccc2C(F)(F)F)n1 (some centres unmarked)"
  System under test: "hCRBN (NanoLuc-CRBN fusion construct in HEK-293 cells) (Homo sapiens, UniProt Q96SW2)"
  Reported endpoint: "pIC50"
  Operator: "="
  Observed value: 5.90
- Compound: "Cc1nc([C@@H]2O[C@H](CO)[C@H](O)[C@H](n3cc(-c4cc(F)c(Cl)c(F)c4)nn3)[C@H]2OCC(=O)N2Cc3ccc(C(=O)Nc4ccc5c(c4)CN(C4CCC(=O)NC4=O)C5=O)cc3C2)n(-c2cc(Cl)ccc2C(F)(F)F)n1 (some centres unmarked)"
  System under test: "hCRBN (NanoLuc-CRBN fusion construct in HEK-293 cells) (Homo sapiens, UniProt Q96SW2)"
  Reported endpoint: "pIC50"
  Operator: "="
  Observed value: 7.77
- Compound: "Cc1nc([C@@H]2O[C@H](CO)[C@H](O)[C@H](n3cc(-c4cc(F)c(Cl)c(F)c4)nn3)[C@H]2OCC(=O)N[C@H]2C[C@@H](Oc3ccc(C(=O)Nc4ccc5c(c4)CN(C4CCC(=O)NC4=O)C5=O)nc3)C2)n(-c2cc(Cl)ccc2C(F)(F)F)n1 (some centres unmarked)"
  System under test: "hCRBN (NanoLuc-CRBN fusion construct in HEK-293 cells) (Homo sapiens, UniProt Q96SW2)"
  Reported endpoint: "pIC50"
  Operator: "="
  Observed value: 6.76
- Compound: "Cc1nc([C@@H]2O[C@H](CO)[C@H](O)[C@H](n3cc(-c4cc(F)c(Cl)c(F)c4)nn3)[C@H]2OCC(=O)N[C@H]2C[C@@H](Oc3ccc(C(=O)Nc4ccc5c(c4)CN([C@@H]4CCC(=O)NC4=O)C5=O)nc3)C2)n(-c2cc(Cl)ccc2C(F)(F)F)n1"
  System under test: "hCRBN (NanoLuc-CRBN fusion construct in HEK-293 cells) (Homo sapiens, UniProt Q96SW2)"
  Reported endpoint: "pIC50"
  Operator: "<"
  Observed value: 4.30
- Compound: "Cc1nc([C@@H]2O[C@H](CO)[C@H](O)[C@H](n3cc(-c4cc(F)c(Cl)c(F)c4)nn3)[C@H]2OCC(=O)NCCOCCOCCNC(=O)COc2cccc3c2C(=O)N(C2CCC(=O)NC2=O)C3=O)n(-c2cc(Cl)ccc2C(F)(F)F)n1 (some centres unmarked)"
  System under test: "hCRBN (NanoLuc-CRBN fusion construct in HEK-293 cells) (Homo sapiens, UniProt Q96SW2)"
  Reported endpoint: "pIC50"
  Operator: "="
  Observed value: 6.28
- Compound: "Cc1nc([C@@H]2O[C@H](CO)[C@H](O)[C@H](n3cc(-c4cc(F)c(Cl)c(F)c4)nn3)[C@H]2OCC(=O)NCCOCC(=O)Nc2ccc3c(c2)CN(C2CCC(=O)NC2=O)C3=O)n(-c2cc(Cl)ccc2C(F)(F)F)n1 (some centres unmarked)"
  System under test: "hCRBN (NanoLuc-CRBN fusion construct in HEK-293 cells) (Homo sapiens, UniProt Q96SW2)"
  Reported endpoint: "pIC50"
  Operator: "="
  Observed value: 6.11
- Compound: "Cc1nc([C@@H]2O[C@H](CO)[C@H](O)[C@H](n3cc(-c4cc(F)c(Cl)c(F)c4)nn3)[C@H]2OCC(=O)N[C@H]2C[C@H](Oc3ccc(C(=O)Nc4ccc5c(c4)CN(C4CCC(=O)NC4=O)C5=O)cc3)C2)n(-c2cc(Cl)ccc2C(F)(F)F)n1 (some centres unmarked)"
  System under test: "hCRBN (NanoLuc-CRBN fusion construct in HEK-293 cells) (Homo sapiens, UniProt Q96SW2)"
  Reported endpoint: "pIC50"
  Operator: "="
  Observed value: 6.42
- Compound: "Cc1nc([C@@H]2O[C@H](CO)[C@H](O)[C@H](n3cc(-c4cc(F)c(Cl)c(F)c4)nn3)[C@H]2OCC(=O)N[C@H]2C[C@@H](Oc3ccc(C(=O)Nc4ccc5c(c4)C(=O)N(C4CCC(=O)NC4=O)C5)nc3)C2)n(-c2cc(Cl)ccc2C(F)(F)F)n1 (some centres unmarked)"
  System under test: "hCRBN (NanoLuc-CRBN fusion construct in HEK-293 cells) (Homo sapiens, UniProt Q96SW2)"
  Reported endpoint: "pIC50"
  Operator: "="
  Observed value: 7.15
